Reported values of Fik Kinase %Inhibition for individual entries
target: FLK-1 receptor (Mus musculus); construct: expressed in transfected cells; host or cells: NIH3T3 C7#3; assay: FLK-1 ELISA (kinase activity of the FLK-1 receptor in FLK-1/NIH3T3 cells, VEGF stimulated); format: cell-based
State the answer as a number, implicitly in %.

>  <structure.smiles.string>
CC(C)(C)c1cc(C=C2C(=O)Nc3ccc(CCCl)cc32)cc(C(C)(C)C)c1O

>  <system.name>
FLK-1 receptor (Mus musculus)

>  <observed.property>
Fik Kinase %Inhibition

>  <experimental.value>
-7.1

$$$$

Reported Fik Kinase %Inhibition ( `CNS(=O)(=O)c1ccc2c(c1)C(=Cc1ccc(O)c(OC)c1[N+](=O)[O-])C(=O)N2` ) = 1.0

Reported Fik Kinase %Inhibition ( `CCOc1ccccc1C=C1C(=O)Nc2c(Br)cc(Br)cc21` ) = 0.1

Reported Fik Kinase %Inhibition ( `O=C1Nc2c(Br)cc(Br)cc2C1=Cc1cc(O)ccc1O` ) = -6.4

Reported Fik Kinase %Inhibition ( `CNS(=O)(=O)c1ccc2c(c1)C(=Cc1cc(C(C)C)c(OC)c(C(C)C)c1)C(=O)N2` ) = 22.5

Reported Fik Kinase %Inhibition ( `COc1ccc(OC)c(C=C2C(=O)Nc3c(Br)cc(Br)cc32)c1` ) = -12.3

###

Reported values of Biochem EGFR %Inhibition for individual entries
Target: EGFR (Homo sapiens)
Construct: Add 7 ug A431 cell lysate per well (EGFR source); endogenous in cells; host or cells: A431
Sequence (P00533 25-1210): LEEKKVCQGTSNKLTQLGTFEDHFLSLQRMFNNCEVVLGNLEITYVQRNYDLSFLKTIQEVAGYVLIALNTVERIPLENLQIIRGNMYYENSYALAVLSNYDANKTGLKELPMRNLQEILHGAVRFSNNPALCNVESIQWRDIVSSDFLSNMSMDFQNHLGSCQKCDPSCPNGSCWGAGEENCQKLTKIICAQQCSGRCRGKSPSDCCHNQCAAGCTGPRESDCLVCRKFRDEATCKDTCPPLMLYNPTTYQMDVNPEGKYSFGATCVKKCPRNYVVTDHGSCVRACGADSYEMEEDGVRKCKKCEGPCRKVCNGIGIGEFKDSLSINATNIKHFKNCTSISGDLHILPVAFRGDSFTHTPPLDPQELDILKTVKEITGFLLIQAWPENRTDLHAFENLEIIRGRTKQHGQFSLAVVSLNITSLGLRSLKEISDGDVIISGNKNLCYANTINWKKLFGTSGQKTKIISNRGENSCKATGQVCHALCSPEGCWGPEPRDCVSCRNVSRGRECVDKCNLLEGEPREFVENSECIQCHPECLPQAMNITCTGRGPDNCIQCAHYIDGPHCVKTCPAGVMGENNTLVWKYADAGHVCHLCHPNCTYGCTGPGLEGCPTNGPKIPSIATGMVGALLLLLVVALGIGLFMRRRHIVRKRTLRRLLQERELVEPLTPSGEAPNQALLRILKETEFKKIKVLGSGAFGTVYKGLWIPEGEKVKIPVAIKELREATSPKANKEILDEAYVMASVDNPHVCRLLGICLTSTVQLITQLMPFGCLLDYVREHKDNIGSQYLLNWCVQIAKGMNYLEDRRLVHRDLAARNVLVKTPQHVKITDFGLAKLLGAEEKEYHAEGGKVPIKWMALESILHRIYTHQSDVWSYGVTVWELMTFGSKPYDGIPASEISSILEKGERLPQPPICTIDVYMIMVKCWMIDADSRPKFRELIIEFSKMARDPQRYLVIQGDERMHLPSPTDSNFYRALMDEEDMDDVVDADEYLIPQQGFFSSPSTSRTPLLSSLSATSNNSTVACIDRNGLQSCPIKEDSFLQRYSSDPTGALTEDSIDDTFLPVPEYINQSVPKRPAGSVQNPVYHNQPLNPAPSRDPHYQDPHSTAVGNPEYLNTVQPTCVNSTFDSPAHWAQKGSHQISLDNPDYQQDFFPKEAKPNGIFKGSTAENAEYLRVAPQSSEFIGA
Test: EGFR ELISA assay (in vitro kinase activity, EGFR captured from A431 cell lysate)
Format: biochemical
Design: concentration or dose not given beside the values
Excerpt: To provide a consistent method for measuring the in vitro kinase activity of the EGFR in an Enzyme-linked immunosorbent assay (Elisa). Scope. The following protocol describes the procedures used to analyze protein tyrosine kinase activity on the EGFR in an Elisa. The procedure also describes the protocol for the initial screening of drugs for inhibition or activation of protein tyrosine kinase activity. Reagents and Supplies. • 1. […]
State the answer as a number, implicitly in %.

Reported Biochem EGFR %Inhibition ( `O=C1Nc2ccc(S(=O)(=O)N3CCOCC3)cc2C1=Cc1ncc[nH]1` ) = -61.1

Reported Biochem EGFR %Inhibition ( `CCOC(=O)CCc1c(C(=O)OCC)[nH]c(C=C2C(=O)Nc3ccc(Br)c(C)c32)c1CC(=O)OCC` ) = 10.9

Reported Biochem EGFR %Inhibition ( `O=C1Nc2ccc(S(=O)(=O)N3CCOCC3)cc2C1=Cc1coc2c(Br)cc(Br)cc2c1=O` ) = 17.9

###

molecular target: FLK-1 receptor (Mus musculus, UniProt P35918); construct: expressed in transfected cells; host or cells: NIH3T3 C7#3; assay: FLK-1 ELISA (kinase activity of the FLK-1 receptor in FLK-1/NIH3T3 cells, VEGF stimulated); assay type: cell-based
Sequence (P35918 20-1345): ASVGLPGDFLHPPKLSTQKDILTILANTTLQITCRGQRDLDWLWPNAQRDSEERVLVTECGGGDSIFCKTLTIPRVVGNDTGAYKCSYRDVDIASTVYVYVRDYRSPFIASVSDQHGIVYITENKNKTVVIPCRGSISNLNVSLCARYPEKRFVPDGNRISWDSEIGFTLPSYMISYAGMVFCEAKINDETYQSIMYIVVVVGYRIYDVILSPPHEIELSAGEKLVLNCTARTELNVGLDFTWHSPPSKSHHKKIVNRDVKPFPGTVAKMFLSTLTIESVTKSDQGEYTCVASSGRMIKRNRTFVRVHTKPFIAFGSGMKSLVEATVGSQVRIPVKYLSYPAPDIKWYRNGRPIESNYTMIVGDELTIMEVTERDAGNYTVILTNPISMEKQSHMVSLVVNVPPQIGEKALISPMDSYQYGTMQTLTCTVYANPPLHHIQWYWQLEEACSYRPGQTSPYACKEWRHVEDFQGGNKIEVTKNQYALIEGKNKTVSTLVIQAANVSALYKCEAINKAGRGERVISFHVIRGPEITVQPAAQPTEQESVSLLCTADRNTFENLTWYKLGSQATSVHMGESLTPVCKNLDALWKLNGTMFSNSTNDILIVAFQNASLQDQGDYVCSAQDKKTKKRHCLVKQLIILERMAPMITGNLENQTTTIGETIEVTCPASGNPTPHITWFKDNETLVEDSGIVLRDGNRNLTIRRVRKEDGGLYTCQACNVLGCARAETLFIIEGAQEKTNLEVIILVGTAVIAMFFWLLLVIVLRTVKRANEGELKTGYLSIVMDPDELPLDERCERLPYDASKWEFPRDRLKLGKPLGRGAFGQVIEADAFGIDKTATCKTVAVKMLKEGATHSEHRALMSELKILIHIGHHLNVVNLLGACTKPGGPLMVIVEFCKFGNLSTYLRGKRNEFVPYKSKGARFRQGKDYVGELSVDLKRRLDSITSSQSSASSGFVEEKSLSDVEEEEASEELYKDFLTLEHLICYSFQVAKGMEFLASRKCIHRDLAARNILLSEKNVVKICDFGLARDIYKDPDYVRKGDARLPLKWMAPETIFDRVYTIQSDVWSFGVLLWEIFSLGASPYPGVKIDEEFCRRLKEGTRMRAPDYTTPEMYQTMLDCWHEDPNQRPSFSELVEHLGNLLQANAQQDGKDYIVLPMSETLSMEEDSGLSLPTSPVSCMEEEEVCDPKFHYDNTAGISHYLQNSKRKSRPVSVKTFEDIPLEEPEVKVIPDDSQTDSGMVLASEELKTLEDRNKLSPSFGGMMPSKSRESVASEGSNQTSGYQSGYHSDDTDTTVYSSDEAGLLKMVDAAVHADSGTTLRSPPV
observed.property: Fik Kinase %Inhibition (%)
State the answer as a number, implicitly in %.

Previously resolved entries follow.
>  <structure.smiles.string>
COc1c(C(C)(C)C)cc(C=C2C(=O)Nc3ccc(I)cc32)cc1C(C)(C)C

>  <Fik Kinase %Inhibition (%)>
-3.3

$$$$
>  <structure.smiles.string>
O=C1Nc2ccc(S(=O)(=O)N3CCOCC3)cc2C1=Cc1sccc1Br

>  <Fik Kinase %Inhibition (%)>
5.8

$$$$
>  <structure.smiles.string>
O=C1Nc2ccc(I)cc2C1=Cc1ccc(O)c(O)c1O

>  <Fik Kinase %Inhibition (%)>
-0.3

$$$$
>  <structure.smiles.string>
Cc1ccsc1C=C1C(=O)Nc2c(Br)cc(Br)cc21

>  <Fik Kinase %Inhibition (%)>
-17.7

$$$$
>  <structure.smiles.string>
CNS(=O)(=O)c1ccc2c(c1)C(=Cc1c[nH]c3ccccc13)C(=O)N2

>  <Fik Kinase %Inhibition (%)>
1.0

$$$$
>  <structure.smiles.string>
COc1cc(OC)c(C=C2C(=O)Nc3ccc(CCCl)cc32)c(OC)c1

>  <Fik Kinase %Inhibition (%)>
23.2

$$$$

Fik Kinase %Inhibition of `Cc1c(Br)ccc2c1C(=Cc1cccc(Br)c1)C(=O)N2` , assay on FLK-1 receptor (Mus musculus, UniProt P35918), is 9.5

Fik Kinase %Inhibition of `CNS(=O)(=O)c1ccc2c(c1)C(=Cc1cc(C)c(O)c(C)c1)C(=O)N2` , assay on FLK-1 receptor (Mus musculus, UniProt P35918), is 14.1

Fik Kinase %Inhibition of `O=C1Nc2ccc(CCCl)cc2C1=Cc1ccc(C(F)(F)F)cc1` , assay on FLK-1 receptor (Mus musculus, UniProt P35918), is 0.6

The values you see were collected from patent EP1247803A2.
